Each entry below carries its reported pEC50.
molecular target: Alpha 2 Adrenergic Receptors (Oryctolagus cuniculus, UniProt Q5ZQK3); construct: from tissue; host or cells: New Zealand white rabbit vas deferens, prostatic end, field stimulated; assay: Rabbit Vas Deferens: Alpha 2 Adrenergic Receptors; type: cell-based, New Zealand white rabbit; conditions: 35° C., field stimulated, 50% reduction in response height, n = number of test runs
Sequence (Q5ZQK3 1-451): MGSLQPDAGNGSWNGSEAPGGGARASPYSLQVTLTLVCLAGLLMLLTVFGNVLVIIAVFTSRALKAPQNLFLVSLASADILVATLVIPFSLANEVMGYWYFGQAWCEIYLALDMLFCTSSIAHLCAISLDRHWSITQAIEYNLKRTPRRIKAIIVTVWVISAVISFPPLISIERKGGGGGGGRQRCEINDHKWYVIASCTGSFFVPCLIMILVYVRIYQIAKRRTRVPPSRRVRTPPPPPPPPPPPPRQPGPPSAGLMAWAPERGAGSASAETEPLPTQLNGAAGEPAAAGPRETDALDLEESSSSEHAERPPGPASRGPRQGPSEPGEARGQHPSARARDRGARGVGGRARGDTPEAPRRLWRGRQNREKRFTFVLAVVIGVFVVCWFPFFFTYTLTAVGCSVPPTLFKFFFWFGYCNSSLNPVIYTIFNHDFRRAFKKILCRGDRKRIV
Friendly reminder that pEC50 comes from taking -log10 of the concentration in mol/L.

{"compound": "CC1CNc2ccc(NC3=NCCN3)c(Br)c2N1 (racemic)", "pEC50": 7.67}
{"compound": "Brc1c(NC2=NCCN2)ccc2c1NCCN2", "pEC50": 8.76}

Next:
Lab note: CC1CNc2c(ccc(NC3=NCCN3)c2Br)N1 (racemic) gave pEC50 of 7.45
